Target: c-Abl (Homo sapiens)
Sequence (P00519 242-493 limits assumed): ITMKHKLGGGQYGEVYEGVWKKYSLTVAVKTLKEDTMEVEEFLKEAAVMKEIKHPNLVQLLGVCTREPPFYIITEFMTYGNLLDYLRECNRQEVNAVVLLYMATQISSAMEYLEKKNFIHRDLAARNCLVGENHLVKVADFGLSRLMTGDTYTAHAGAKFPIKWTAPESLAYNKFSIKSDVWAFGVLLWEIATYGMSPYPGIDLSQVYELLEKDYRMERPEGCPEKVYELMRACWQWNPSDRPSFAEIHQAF
Label class 1 when IC50 is strictly below 10 nM; at or above that, label class 0.

{"columns": ["molecule", "label"],
 "data": [
  ["CN(C)c1ncnc2[nH]c(-c3ccc(Cc4ccc[nH]4)cc3)cc12 [Example 25]", "class 1"]
]}

Is 10 nM strictly greater than the molecule's reported IC50? molecule: CN(C)c1ncnc2[nH]c(-c3ccc(Cn4ccnc4)cc3)cc12 [Example 24]
class 0

Query CN1CCN(C(=O)c2ccc(-c3cc4c(NCCCO)ncnc4[nH]3)cc2)CC1 [Example 15] next
class 0

Query CCCNc1ncnc2[nH]c(-c3ccc(CN4CCN(C)CC4)cc3)cc12 [Example 18] next
class 1

Query CCCN(C)c1ncnc2[nH]c(-c3ccc(CN4CCN(C)CC4)cc3)cc12 [Example 19] next
class 0

* * *

Assign HER-2/%-inh. [%] to each entry below.
target: c-erbB2 tyrosine kinase (HER-2) (Homo sapiens, UniProt P04626); test: Inhibition of c-erbB2 tyrosine kinase (HER-2); format: biochemical; parameters: dose or concentration left out as unconfirmed
Sequence (P04626 23-1255): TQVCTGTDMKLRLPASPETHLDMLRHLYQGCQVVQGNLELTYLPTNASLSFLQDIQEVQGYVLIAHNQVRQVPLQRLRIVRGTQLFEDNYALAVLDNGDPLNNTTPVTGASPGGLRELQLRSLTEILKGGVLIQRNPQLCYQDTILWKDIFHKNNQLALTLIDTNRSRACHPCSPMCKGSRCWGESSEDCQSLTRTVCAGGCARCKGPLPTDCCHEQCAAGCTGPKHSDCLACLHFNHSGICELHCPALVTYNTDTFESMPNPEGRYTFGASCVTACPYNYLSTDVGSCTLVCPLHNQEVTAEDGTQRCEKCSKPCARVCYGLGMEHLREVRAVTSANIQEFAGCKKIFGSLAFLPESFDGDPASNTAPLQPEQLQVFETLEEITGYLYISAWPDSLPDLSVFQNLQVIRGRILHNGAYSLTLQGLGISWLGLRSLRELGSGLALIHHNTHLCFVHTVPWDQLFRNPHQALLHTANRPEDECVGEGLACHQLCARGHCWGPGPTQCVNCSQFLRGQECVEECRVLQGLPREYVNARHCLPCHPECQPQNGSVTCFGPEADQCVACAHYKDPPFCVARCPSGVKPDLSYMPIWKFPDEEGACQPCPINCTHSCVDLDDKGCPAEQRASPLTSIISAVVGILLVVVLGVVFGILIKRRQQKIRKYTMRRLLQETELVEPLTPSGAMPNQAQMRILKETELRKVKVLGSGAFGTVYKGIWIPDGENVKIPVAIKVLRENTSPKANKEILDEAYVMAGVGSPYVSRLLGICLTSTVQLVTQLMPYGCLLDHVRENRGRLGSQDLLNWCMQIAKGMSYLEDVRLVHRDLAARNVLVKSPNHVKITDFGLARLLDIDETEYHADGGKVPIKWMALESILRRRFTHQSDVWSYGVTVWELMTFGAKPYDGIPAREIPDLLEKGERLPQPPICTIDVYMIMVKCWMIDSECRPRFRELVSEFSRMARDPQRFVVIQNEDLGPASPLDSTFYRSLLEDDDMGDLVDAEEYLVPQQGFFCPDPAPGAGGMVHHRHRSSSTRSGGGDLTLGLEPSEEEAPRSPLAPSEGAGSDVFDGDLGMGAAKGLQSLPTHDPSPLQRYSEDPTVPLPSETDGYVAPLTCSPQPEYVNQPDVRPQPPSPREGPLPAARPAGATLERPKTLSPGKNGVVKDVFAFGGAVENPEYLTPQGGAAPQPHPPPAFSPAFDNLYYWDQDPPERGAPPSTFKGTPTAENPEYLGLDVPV
Numbers only, in %.

These recorded examples may help you get a feel for the data.
{"columns": ["molecule", "measure.unit", "HER-2/%-inh. [%]"],
 "data": [
  ["CN(C)c1ncnc2[nH]c(-c3ccc(C(C)(C)O)cc3)cc12 [Example 34]", "%", 57],
  ["COCCN(C)Cc1ccc(-c2cc3c(N(C)C)ncnc3[nH]2)cc1 [Example 29]", "%", 79],
  ["CN(C)c1ncnc2[nH]c(-c3ccc(C(=O)NCCCN4CCOCC4)cc3)cc12 [Example 7]", "%", 71],
  ["CCCN(C)c1ncnc2[nH]c(-c3ccc(CN4CCN(C)CC4)cc3)cc12 [Example 19]", "%", 89],
  ["CCCNc1ncnc2[nH]c(-c3ccc(C(=O)N4CCN(C)CC4)cc3)cc12 [Example 17]", "%", 87]
]}

Please give HER-2/%-inh. [%], item by item, for the list that follows.
1. CN(C)c1ncnc2[nH]c(-c3ccc(Cc4ccc[nH]4)cc3)cc12 [Example 25]
2. CCN(CC)CCCNC(=O)c1ccc(-c2cc3c(N(C)C)ncnc3[nH]2)cc1 [Example 5]
3. CNc1ncnc2[nH]c(-c3ccc(CN4CCN(C)CC4)cc3)cc12 [Example 16]
4. CNc1ncnc2[nH]c(-c3ccc(C(=O)N4CCN(C)CC4)cc3)cc12 [Example 12]
5. CN1CCN(C(=O)c2ccc(-c3cc4c(NCCCO)ncnc4[nH]3)cc2)CC1 [Example 15]

[39, 78, 93, 85, 88]
